Test system: ULK kinase substrate ATG13 (pS318-ATG13) in MiaPaCa-2 cells
experiment.notes: pATG13 levels of mutant KRas MiaPaCa-2 cells after treatment with ULK inhibitors in combination with trametinib (ELISA)
Assay type: cell-based, human
metric: IC50

molecule: CC/C(Nc1ccc(N2C[C@H]3CN(C)C[C@H]3C2)cc1)=C1/C(=O)Nc2ccc(C(=O)NCC(F)(F)F)cc21
system: ULK kinase substrate ATG13 (pS318-ATG13) in MiaPaCa-2 cells
metric: IC50
measured.value: ≤ 0.1 µM

molecule: CC/C(Nc1cnn(C2CCN(C3CCCC3)CC2)c1)=C1/C(=O)Nc2ccc(C(=O)NCC(C)C)cc21
system: ULK kinase substrate ATG13 (pS318-ATG13) in MiaPaCa-2 cells
metric: IC50
measured.value: ≤ 0.1 µM

molecule: CC/C(Nc1cnn(C2CCN(C(C)C)CC2)c1)=C1/C(=O)Nc2ccc(C(=O)N(C)C)cc21
system: ULK kinase substrate ATG13 (pS318-ATG13) in MiaPaCa-2 cells
metric: IC50
measured.value: 0.1 to 0.3 µM

molecule: CC/C(Nc1cnn([C@@H]2CCOC2)c1)=C1/C(=O)Nc2ccc(C(=O)NCC(F)(F)F)cc21
system: ULK kinase substrate ATG13 (pS318-ATG13) in MiaPaCa-2 cells
metric: IC50
measured.value: ≤ 0.1 µM

molecule: CC/C(Nc1ccc(N2CCN(C)CC2)cc1F)=C1/C(=O)Nc2ccc(C(=O)NCC(F)(F)F)cc21
system: ULK kinase substrate ATG13 (pS318-ATG13) in MiaPaCa-2 cells
metric: IC50
measured.value: 0.1 to 0.3 µM

molecule: CC/C(Nc1ccc(N2CC3CC2CN3C)cc1)=C1/C(=O)Nc2ccc(C(=O)NCC(C)C)cc21 (stereo not drawn)
system: ULK kinase substrate ATG13 (pS318-ATG13) in MiaPaCa-2 cells
metric: IC50
measured.value: ≤ 0.1 µM

molecule: CC/C(Nc1cnn(C(C)C)c1)=C1/C(=O)Nc2ccc(C(=O)NC[C@H]3CCCO3)cc21
system: ULK kinase substrate ATG13 (pS318-ATG13) in MiaPaCa-2 cells
metric: IC50
measured.value: ≤ 0.1 µM

molecule: CC/C(Nc1cnn(C2CCN(C(C)C)CC2)c1)=C1/C(=O)Nc2ccc(C(=O)NCCC(F)(F)F)cc21
system: ULK kinase substrate ATG13 (pS318-ATG13) in MiaPaCa-2 cells
metric: IC50
measured.value: ≤ 0.1 µM

molecule: CC/C(Nc1cnc(N2CCN(C)CC2)nc1)=C1/C(=O)Nc2ccc(C(=O)NCC(F)(F)F)cc21
system: ULK kinase substrate ATG13 (pS318-ATG13) in MiaPaCa-2 cells
metric: IC50
measured.value: 0.1 to 0.3 µM

Source of measurements: patent US20240150368A1
